# System: MLK2
# experimental conditions: concentration: 1 μM, replicates: in singlicate; n = 1;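 also: KINOMEscan kinase panel screen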
measure name: %Inh (%)
Report the figure in % without appending any unit label.

Before answering, review these 3 worked examples.
COC(=O)Nc1nc2ccc(Oc3ccc(NC(=O)Nc4cc(C(F)(F)F)ccc4F)cc3)cc2[nH]1.Cl; 21
CCNc1nccc(-c2c(-c3ccc(F)cc3)ncn2C2CCN(C)CC2)n1; 7
CN(c1ccc(NC(=O)Nc2cccc(Cl)c2)cc1)c1ccnc(N)n1.Cl; 7

Please fill in: %Inh reported for CCOc1nccc(-c2c(-c3ccc(F)cc3)ncn2C2CCNCC2)n1 = 14

Please fill in: %Inh reported for Nc1ncnc2scc(-c3ccc(NC(=O)Cc4cc(F)ccc4F)cc3)c12.O=C(O)C(F)(F)F = 28

Please fill in: %Inh reported for COc1cc(Nc2nccc(N3CCC(NC(=O)Nc4ccc5c(c4)OCO5)C3)n2)cc(OC)c1OC (stereo not shown) = 0

Please fill in: %Inh reported for CC(=O)Nc1cn2nc(Oc3cccc(NC(=O)c4cccc(C(F)(F)F)c4)c3)ccc2n1 = 23

====

# Tested on: LZK
# Construct: gene MAP3K13
# experimental conditions: concentration: 1 μM, replicates: in singlicate; n = 1
measure name: %Inh (%)
Report the figure in % without appending any unit label.

CCn1cnc2c(NCc3ccccc3)ncnc21; 34
Cc1ccc(O)cc1Nc1ccnc2ccc(C(C)(C)C)cc12; 0
N#Cc1cnc2cc(-c3cnc(CNCCN4CCOCC4)s3)ccc2c1Nc1ccc(Oc2ccccc2)cc1; 76
O=C1NC(=O)C(c2ccccc2Cl)=C1Nc1cccc(Cl)c1; 0
COc1cccc2c(-c3ccncc3)c(-c3ccc(F)cc3)nn12; 0
CN(c1ccc(NC(=O)N2CCN(CCCN3CCOCC3)CC2)cc1)c1ccnc(Nc2ccc(CS(C)(=O)=O)cc2)n1.Cl; 0
Cn1cc(-c2ccc3c(c2)CCN3C(=O)Cc2cc(F)cc(F)c2F)c2c(N)ncnc21; 0
CN(c1ccc2c(c1)nc(NCc1ccccc1)n2C)c1ccnc(Nc2ccc(CS(C)(=O)=O)cc2)n1.Cl; 0

Please fill in: %Inh reported for Cl.N#CCc1ccc(Nc2nccc(Nc3ccc(Oc4ccccc4)cc3)n2)cc1 = 0

====

# Tested on: AKT2
# experimental conditions: concentration: 1 μM, replicates: in singlicate; n = 1
Below is a list of entries, each paired with its recorded %Inh value.
I'd appreciate it if you included the unit after the number.

O=C(Nc1n[nH]c2nc(-c3ccccc3)ccc12)C1CC1 [SB-708999]; 9%

Measured %Inh (AKT2), entry COc1cc(Nc2nccc(N3CCC(NC(=O)Nc4ccc5c(c4)OCO5)C3)n2)cc(OC)c1OC (stereo not drawn) [GSK1379766] : 2%

Measured %Inh (AKT2), entry Cn1cc(-c2ccc3c(c2)CCN3C(=O)Cc2cc(F)cc(F)c2F)c2c(N)ncnc21 [GSK2634140] : 0%

Measured %Inh (AKT2), entry COc1cc(Nc2nccc(N3CCC(NS(=O)(=O)c4ccc(NC(C)=O)cc4)CC3)n2)cc(OC)c1OC [GSK1379825] : 15%

Measured %Inh (AKT2), entry CCNc1nccc(-c2c(-c3ccc(F)cc3)ncn2C2CCN(C)CC2)n1 : 0%

Measured %Inh (AKT2), entry c1ccc(Oc2ccc(Nc3ccnc4cc(-c5ccc(CN6CCCCC6)o5)ccc34)cc2)nc1 [GW567143] : 14%

====

Below is a list of entries, each paired with its recorded %Inh value.
# Test system: PRKCH
# experimental conditions: concentration: 1 μM, replicates: in singlicate; n = 1
Report the figure in % without appending any unit label.

Before answering, review these 6 worked examples.
Cl.O=C(Nc1ccc(Oc2ccc3[nH]c(NC(=O)c4ccco4)nc3c2)cc1)Nc1cc(C(F)(F)F)ccc1F; 0
O=C(Nc1c(F)cccc1F)c1cc(C(=O)c2ccccc2F)c[nH]1; 4
Cl.Cl.NC(CNC(=O)c1cc(Br)c(-c2ccnc3[nH]ccc23)s1)c1ccccc1 (centres unmarked); 92.6
Cc1cc(-c2ccnc(Nc3cccc(C#N)c3)n2)cc(C)c1O; 5
Cc1cccc(Nc2nc(NCCN)ncc2C(N)=O)c1; 22
COc1ccc(C)c(Nc2ccnc(Nc3ccc(-c4cnc[nH]4)cc3)n2)c1.Cl; 0

Please fill in: %Inh reported for CCn1c(-c2nonc2N)nc2c(-c3ccccc3)ncc(OCCCN)c21.O=C(O)C(F)(F)F.O=C(O)C(F)(F)F = 95.6

Please fill in: %Inh reported for COc1cccc(NC(=O)NCCNc2ccnc(Nc3ccc(F)cc3)n2)c1 = 5

Please fill in: %Inh reported for COc1ccc(NC(=O)c2ccoc2)cc1-c1ccc(C(=O)NCC2CC2)cc1 = 0

====

Below is a list of entries, each paired with its recorded %Inh value.
# Tested on: DYRK1A
# experimental conditions: concentration: 1 μM, replicates: in singlicate; n = 1
Report the figure in % without appending any unit label.

Before answering, review these 5 worked examples.
COc1cccc2c(-c3ccncc3)c(-c3ccc(F)cc3)nn12; 15
CCOc1nccc(-c2c(-c3ccc(F)cc3)ncn2C2CCNCC2)n1; 1
CN(c1ccc(NC(=O)N2CCN(CCCN3CCOCC3)CC2)cc1)c1ccnc(Nc2ccc(CS(C)(=O)=O)cc2)n1.Cl; 0
O=C1NC(=O)C(c2ccccc2Cl)=C1Nc1cccc(Cl)c1; 61
CNc1nccc(-c2ccc3c(N)n[nH]c3c2)n1; 98.8

Please fill in: %Inh reported for c1ccc(Oc2ccc(Nc3ccnc4cc(-c5ccc(CN6CCCCC6)o5)ccc34)cc2)nc1 = 26

Please fill in: %Inh reported for O=C(Nc1n[nH]c2cc(-c3cccs3)ccc12)C1CC1 = 15

====

# Tested on: EPHA1
# experimental conditions: concentration: 1 μM, replicates: in singlicate; n = 1
Below is a list of entries, each paired with its recorded %Inh value.
Report the figure in % without appending any unit label.

COc1ccc(NC(=O)c2ccoc2)cc1-c1ccc(C(=O)NCC2CC2)cc1; 0
COc1cccc(NC(=O)NCCNc2ccnc(Nc3ccc(F)cc3)n2)c1; 52

Measured %Inh (EPHA1), entry Cc1nn2c(=O)cc(N3CCO[C@H](C)C3)nc2n1Cc1cccc(Cl)c1Cl : 1

Measured %Inh (EPHA1), entry Cl.N#CCc1ccc(Nc2nccc(Nc3ccc(Oc4ccccc4)cc3)n2)cc1 : 1

Measured %Inh (EPHA1), entry CCn1c(-c2nonc2N)nc2c(-c3ccccc3)ncc(OCCCN)c21.O=C(O)C(F)(F)F.O=C(O)C(F)(F)F : 24

====

# Tested on: IRAK4
# experimental conditions: concentration: 1 μM, replicates: in singlicate; n = 1
measure name: %Inh
I'd appreciate it if you included the unit after the number.

Before answering, review these 5 worked examples.
CC(C)(C)c1ccc(C(=O)Nc2cn3cc(-n4ccnc4)ccc3n2)cc1; 65%
CCNc1nccc(-c2c(-c3ccc(F)cc3)ncn2C2CCN(C)CC2)n1; 0%
Cc1ccc(NC(=O)c2ccc(Cl)c(Cl)c2)cc1-c1ccc(C(=O)Nc2ccncc2)cc1 [GSK1398460]; 7%
Cn1cc(-c2ccc3c(c2)CCN3C(=O)Cc2cc(F)cc(F)c2F)c2c(N)ncnc21 [GSK2634140]; 0%
O=C(Nc1n[nH]c2nc(-c3ccccc3)ccc12)C1CC1 [SB-708999]; 14%

Please fill in: %Inh reported for Cc1cccc(Nc2nc(N[C@H]3CCCC[C@H]3N)ncc2C(N)=O)c1.Cl [GSK986310] = 86%

Please fill in: %Inh reported for CN(C)CCOc1ccc(-c2cc(-c3ccc(Cl)c(O)c3)c(-c3ccncc3)[nH]2)cc1.Cl.Cl [SB-684387] = 0%

Please fill in: %Inh reported for COC(=O)Nc1nc2ccc(Oc3ccc(NC(=O)Nc4cc(C(F)(F)F)ccc4F)cc3)cc2[nH]1.Cl [GW654607] = 3%

====

# Test system: PIP5K1A
# experimental conditions: concentration: 1 μM, replicates: in singlicate; n = 1
measure name: %Inh
I'd appreciate it if you included the unit after the number.

Before answering, review these 6 worked examples.
O=C(Nc1n[nH]c2nc(-c3ccccc3)ccc12)C1CC1 [SB-708999]; 46%
COC(=O)Nc1nc2ccc(Oc3ccc(NC(=O)Nc4cc(C(F)(F)F)ccc4F)cc3)cc2[nH]1.Cl [GW654607]; 0%
Cc1ccc(NC(=O)c2ccc(Cl)c(Cl)c2)cc1-c1ccc(C(=O)Nc2ccncc2)cc1 [GSK1398460]; 0%
O=C(Nc1n[nH]c2nc(-c3ccccc3O)ccc12)C1CC1 [SB-711880]; 0%
CN(C)CCOc1ccc(-c2cc(-c3ccc(Cl)c(O)c3)c(-c3ccncc3)[nH]2)cc1.Cl.Cl [SB-684387]; 45%
c1ccc(Oc2ccc(Nc3ccnc4cc(-c5ccc(CN6CCCCC6)o5)ccc34)cc2)nc1 [GW567143]; 9%

Please fill in: %Inh reported for CC(C)c1nc(-c2cccc(NS(=O)(=O)c3c(F)cccc3F)c2)c(-c2ccnc(Nc3ccc(N4CCOCC4)nc3)n2)s1.Cl [GSK1723980] = 0%

Please fill in: %Inh reported for COc1cccc(C2=C(Nc3cccc(O)c3)C(=O)NC2=O)c1 [SB-390771] = 0%
